TESTED_ON: VEGF165 (Homo sapiens, UniProt P15692-4 P15692-4:27-191)
Sequence (P15692 other isoform, or with tags, fused parts or gaps): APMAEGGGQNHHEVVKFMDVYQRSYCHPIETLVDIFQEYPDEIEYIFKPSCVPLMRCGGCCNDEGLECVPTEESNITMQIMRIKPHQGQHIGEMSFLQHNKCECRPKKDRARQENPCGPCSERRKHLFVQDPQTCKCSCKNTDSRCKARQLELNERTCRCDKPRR
PROCEDURE_DETAILS: filter; 37 C
MEASUREMENT_PARAMETERS: tags: carrier-free, Sf 21 insect cell expressed, R & D Systems; chain copies: 2 (inferred)
# maps each entry to its pKd
Reminder that pKd means the negative base-10 logarithm of the concentration expressed in mol/L.

1. VP30.63 (ssRNA, 2'-F pyrimidines) RNA: GGGAGGACGAUGCGGAACCAAUAGAGAUCUUCGGCUGCCCCGCGUCAGACGACUCGCCCGA : 10.80
2. VT30.44 (ssRNA, 2'-F pyrimidines) RNA: GGGAGGACGAUGCGGAAUCAGUGAAUGCUUAUACAUCCGCUCGGUCAGACGACUCGCCCGA : 11.00
3. VP30.67 (ssRNA, 2'-F pyrimidines) RNA: GGGAGGACGAUGCGGUUAACGGAAUUCUUGGAUACAUAGCAUGGUCAGACGACUCGCCCGA : 10.62

pKd in this record for VT30.11 (ssRNA, 2'-F pyrimidines) RNA: GGGAGGACGAUGCGGAAUCAGUGAAUGCUUAUAGCUCCCGCGUCCUCAGACGACUCGCCCGA : 11.40

Memo: VT30.2 (ssRNA, 2'-F pyrimidines) RNA: GGGAGGACGAUGCGGAUCAGUGAAUGCUUAUAGACCGCCUCCGUCAGACGACUCGCCCGA , reported pKd: 11.70
